assay_summary: in vitro
run_parameters: human, liver microsomes
observable: CLint scaled at 0.75 h, 1 µM (mL/min/kg)
# number only, unit mL/min/kg dropped from output

Noted for O=C(N[C@@H](Cn1ccnc1)c1ccc(Cl)cc1Cl)c1ccc(-c2nnc(-c3ccc(OCC(F)(F)F)cc3F)o2)cc1 : its CLint scaled at 0.75 h, 1 µM reads 16.5

# CLint scaled at 0.75 h, 1 µM (compound: O=C(N[C@@H](Cn1ccnc1)c1ccc(Cl)cc1Cl)c1ccc(-c2nnc(-c3cc(-c4ccccn4)ccc3F)o2)cc1 ) is 10.2

Entry O=C(N[C@@H](Cn1ccnc1)c1ccc(Cl)cc1Cl)c1ccc(-c2nnc(-c3cc(F)cc(OCC(F)(F)F)c3)o2)cc1 ; CLint scaled at 0.75 h, 1 µM = 11.3

Entry O=C(N[C@@H](Cn1ccnc1)c1ccc(Cl)cc1Cl)c1ccc(-c2nnc(-c3ccc(F)c(F)c3)o2)cc1 — recorded CLint scaled at 0.75 h, 1 µM = 7.53

According to the records, this compound O=C(N[C@@H](Cn1ccnc1)c1ccc(Cl)cc1Cl)c1ccc(-c2nnc(-c3ccc(-c4ccccn4)cc3F)o2)cc1 displays CLint scaled at 0.75 h, 1 µM of 15

Measured CLint scaled at 0.75 h, 1 µM, O=C(N[C@@H](Cn1ccnc1)c1ccc(Cl)cc1Cl)c1ccc(-c2nnc(-c3cccc(Br)c3)o2)cc1 : 9.47

Note to self: CLint scaled at 0.75 h, 1 µM recorded for O=C(N[C@@H](Cn1ccnc1)c1ccc(Cl)cc1Cl)c1ccc(-c2nnc(-c3ccc(-c4ccccn4)cc3)o2)cc1 was 10.8

The compound O=C(N[C@@H](Cn1ccnc1)c1ccc(Cl)cc1Cl)c1ccc(-c2nnc(-c3ccc(Cl)c(Cl)c3)o2)cc1 showed CLint scaled at 0.75 h, 1 µM equal to 11.4

Item: CS(=O)(=O)c1ccc(-c2nnc(-c3ccc(C(=O)N[C@@H](Cn4ccnc4)c4ccc(Cl)cc4Cl)cc3)o2)cc1Cl | CLint scaled at 0.75 h, 1 µM: 9.31

// CLint scaled at 0.75 h, 1 µM lookup, compound = O=C(N[C@@H](Cn1ccnc1)c1ccc(Cl)cc1Cl)c1ccc(-c2nnc(-c3cccc(-c4ccccn4)c3)o2)cc1 , result: 13.1

###

Answer each item with its documented t1/2.
assay_summary: Half life in Sprague-Dawley rat liver microsomes at 1 uM preincubated for 5 mins followed by NADPH addition measured up to 45 mins by LC-MS/MS analysis
Assay type: ADME, microsome
run_parameters: 0.75 h
Quick note: give the figure in h, leave out the unit.

response.value for O=C(N[C@@H](Cn1ccnc1)c1ccc(Cl)cc1Cl)c1ccc(-c2nnc(-c3cc(-c4ccccn4)ccc3F)o2)cc1 (field: t1/2) = 0.95

The reported t1/2 of the compound O=C(N[C@@H](Cn1ccnc1)c1ccc(Cl)cc1Cl)c1ccc(-c2nnc(-c3ccc(F)c(F)c3)o2)cc1 was 1.52

Measured t1/2, O=C(N[C@@H](Cn1ccnc1)c1ccc(Cl)cc1Cl)c1ccc(-c2nnc(-c3ccc(C(F)(F)F)c(F)c3)o2)cc1 : 1.28

The compound listed as O=C(N[C@@H](Cn1ccnc1)c1ccc(Cl)cc1Cl)c1ccc(-c2nnc(-c3ccccc3)o2)cc1 shows t1/2 equal to 1.77

t1/2 recorded for this compound, O=C(N[C@@H](Cn1ccnc1)c1ccc(Cl)cc1Cl)c1ccc(-c2nnc(-c3cccc(-c4ccccn4)c3)o2)cc1 , is 0.683

Numbers sourced from ChEMBL document CHEMBL4118269.
